Assay method text: Pharmacokinetics of salt forms, single IV dose
Type: in vivo, CD-1 mice
Condition description: male, CD-1, mouse, plasma; IV 1 mg/kg, 4 h; read-out: mean concentration of 110095 in mouse plasma
Endpoint label: concentration at 4 h (ng/mL)
Just the number in ng/mL, nothing appended.

Input line: Output measured concentration at 4 h for this item: COCCOc1cnc(Sc2cc(C)c(-c3csc(NC(=O)c4ccncc4)n3)c(C)c2)cn1.Cl [110095-HCl-1007]
Output line: 202

###

Assay method text: Pharmacokinetics of salt forms, single IV dose
Type: in vivo, CD-1 mice
Condition description: male, CD-1, mouse, in vivo, iv, 1 mg/kg
Endpoint label: AUC(0-t) (ng·h/mL)
Just the number in ng·h/mL, nothing appended.

Input line: Output measured AUC(0-t) for this item: COCCOc1cnc(Sc2cc(C)c(-c3csc(NC(=O)c4ccncc4)n3)c(C)c2)cn1.Cl [110095-HCl-1007]
Output line: 2980

###

Tested on: K562
Assay method text: Antiproliferation assay (MTS), K562 cells
Format: cell-based
Condition description: Homo sapiens, K562, 96 h, Table 2, read-out: Antiproliferative IC50 K562
Listed below: IC50 values for each entry.
Just the number in nM, nothing appended.

{"columns": ["Compound", "IC50 (nM)"],
 "data": [
  ["Cc1cc(C)c(-c2csc(NC(=O)Cc3ccncc3)n2)c(C)c1 [II-93]", 380]
]}

Input line: Output measured IC50 for this item: Cc1cc(C)c(-c2csc(NC(=O)/C=C/c3cccnc3)n2)c(C)c1 [II-103]
Output line: 2480

###

Target or test system: hERG potassium channels (Homo sapiens)
Construct: purchased PerkinElmer
Sequence (Q12809 whole entry): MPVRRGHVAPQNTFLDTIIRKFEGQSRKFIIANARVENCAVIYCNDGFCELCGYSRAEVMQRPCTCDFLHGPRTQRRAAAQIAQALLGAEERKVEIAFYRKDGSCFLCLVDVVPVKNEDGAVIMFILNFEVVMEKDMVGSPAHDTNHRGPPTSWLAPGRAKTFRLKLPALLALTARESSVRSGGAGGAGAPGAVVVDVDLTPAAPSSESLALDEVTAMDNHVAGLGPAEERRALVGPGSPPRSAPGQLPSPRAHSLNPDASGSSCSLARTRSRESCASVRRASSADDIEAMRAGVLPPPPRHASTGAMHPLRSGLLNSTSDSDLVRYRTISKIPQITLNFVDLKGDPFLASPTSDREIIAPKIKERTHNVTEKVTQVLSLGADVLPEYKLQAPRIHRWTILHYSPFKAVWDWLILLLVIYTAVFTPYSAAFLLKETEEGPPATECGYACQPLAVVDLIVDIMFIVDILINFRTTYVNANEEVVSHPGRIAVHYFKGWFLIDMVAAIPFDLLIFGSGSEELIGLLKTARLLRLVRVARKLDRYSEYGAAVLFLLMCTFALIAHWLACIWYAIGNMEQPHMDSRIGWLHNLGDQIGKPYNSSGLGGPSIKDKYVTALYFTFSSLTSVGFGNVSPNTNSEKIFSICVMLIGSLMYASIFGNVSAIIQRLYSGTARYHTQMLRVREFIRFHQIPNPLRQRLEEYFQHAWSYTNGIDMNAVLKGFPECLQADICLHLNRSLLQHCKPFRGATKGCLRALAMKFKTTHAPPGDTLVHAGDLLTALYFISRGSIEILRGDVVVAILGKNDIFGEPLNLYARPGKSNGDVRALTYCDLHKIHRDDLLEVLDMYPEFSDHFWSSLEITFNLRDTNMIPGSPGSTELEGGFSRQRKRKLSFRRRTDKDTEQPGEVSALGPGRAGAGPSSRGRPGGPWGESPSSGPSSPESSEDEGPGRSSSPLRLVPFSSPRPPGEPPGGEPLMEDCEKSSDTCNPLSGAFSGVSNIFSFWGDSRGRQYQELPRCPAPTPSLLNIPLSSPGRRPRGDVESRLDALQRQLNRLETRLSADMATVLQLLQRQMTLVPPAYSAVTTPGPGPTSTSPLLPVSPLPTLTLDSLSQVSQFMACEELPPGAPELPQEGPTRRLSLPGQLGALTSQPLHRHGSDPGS
Assay method text: [3H]Astemizole competitive binding assay, hERG
Condition description: [3H]-astemizole displacement, hERG membrane protein
Description: Here, [3H] Astemizole competitive binding assays were performed to determine the ability of compounds to displace the known radioligand [3H]-astemizole from the hERG potassium channels, following standard protocol with minor modifications. […] Nonspecific binding (NSB) was determined in the presence of 10 μM astemizole. […] Captured radiolabel signal was detected using TopCount NXT (Perkin Elmer). […]
pIC50: −log10 of the molar value.
Listed below: pIC50 values for each entry.

The examples below pair each entry with its known result.
{"columns": ["Smiles string", "pIC50"],
 "data": [
  ["COCCOc1cnc(Sc2cc(C)c(-c3csc(NC(=O)c4ccncc4)n3)c(C)c2)cn1", "< 5.00"],
  ["COc1cnc(Sc2cc(C)c(-c3csc(NC(=O)c4ccncc4)n3)c(C)c2)cn1", "< 5.00"]
]}

Read the next record carefully.
Input line: Output measured pIC50 for this item: COCCOc1cnc(Oc2cc(C)c(-c3csc(NC(=O)c4ccncc4)n3)c(C)c2)cn1
Output line: < 5.00

###

Assay method text: Pharmacokinetics of salt forms, single oral dose
Assay type: in vivo, CD-1 mice
Condition description: male, CD-1, mouse, plasma; PO 10 mg/kg, 1 h; read-out: mean concentration of 110095 in mouse plasma
Endpoint label: concentration at 1 h (ng/mL)
Just the number in ng/mL, nothing appended.

Input line: Output measured concentration at 1 h for this item: COCCOc1cnc(Sc2cc(C)c(-c3csc(NC(=O)c4ccncc4)n3)c(C)c2)cn1.Cl [110095-HCl-1007]
Output line: 4060

The reported numbers originate from patent US8999983B2.
